- assayed target: CREB-binding protein (Homo sapiens)
- Sequence (Q92793 whole entry): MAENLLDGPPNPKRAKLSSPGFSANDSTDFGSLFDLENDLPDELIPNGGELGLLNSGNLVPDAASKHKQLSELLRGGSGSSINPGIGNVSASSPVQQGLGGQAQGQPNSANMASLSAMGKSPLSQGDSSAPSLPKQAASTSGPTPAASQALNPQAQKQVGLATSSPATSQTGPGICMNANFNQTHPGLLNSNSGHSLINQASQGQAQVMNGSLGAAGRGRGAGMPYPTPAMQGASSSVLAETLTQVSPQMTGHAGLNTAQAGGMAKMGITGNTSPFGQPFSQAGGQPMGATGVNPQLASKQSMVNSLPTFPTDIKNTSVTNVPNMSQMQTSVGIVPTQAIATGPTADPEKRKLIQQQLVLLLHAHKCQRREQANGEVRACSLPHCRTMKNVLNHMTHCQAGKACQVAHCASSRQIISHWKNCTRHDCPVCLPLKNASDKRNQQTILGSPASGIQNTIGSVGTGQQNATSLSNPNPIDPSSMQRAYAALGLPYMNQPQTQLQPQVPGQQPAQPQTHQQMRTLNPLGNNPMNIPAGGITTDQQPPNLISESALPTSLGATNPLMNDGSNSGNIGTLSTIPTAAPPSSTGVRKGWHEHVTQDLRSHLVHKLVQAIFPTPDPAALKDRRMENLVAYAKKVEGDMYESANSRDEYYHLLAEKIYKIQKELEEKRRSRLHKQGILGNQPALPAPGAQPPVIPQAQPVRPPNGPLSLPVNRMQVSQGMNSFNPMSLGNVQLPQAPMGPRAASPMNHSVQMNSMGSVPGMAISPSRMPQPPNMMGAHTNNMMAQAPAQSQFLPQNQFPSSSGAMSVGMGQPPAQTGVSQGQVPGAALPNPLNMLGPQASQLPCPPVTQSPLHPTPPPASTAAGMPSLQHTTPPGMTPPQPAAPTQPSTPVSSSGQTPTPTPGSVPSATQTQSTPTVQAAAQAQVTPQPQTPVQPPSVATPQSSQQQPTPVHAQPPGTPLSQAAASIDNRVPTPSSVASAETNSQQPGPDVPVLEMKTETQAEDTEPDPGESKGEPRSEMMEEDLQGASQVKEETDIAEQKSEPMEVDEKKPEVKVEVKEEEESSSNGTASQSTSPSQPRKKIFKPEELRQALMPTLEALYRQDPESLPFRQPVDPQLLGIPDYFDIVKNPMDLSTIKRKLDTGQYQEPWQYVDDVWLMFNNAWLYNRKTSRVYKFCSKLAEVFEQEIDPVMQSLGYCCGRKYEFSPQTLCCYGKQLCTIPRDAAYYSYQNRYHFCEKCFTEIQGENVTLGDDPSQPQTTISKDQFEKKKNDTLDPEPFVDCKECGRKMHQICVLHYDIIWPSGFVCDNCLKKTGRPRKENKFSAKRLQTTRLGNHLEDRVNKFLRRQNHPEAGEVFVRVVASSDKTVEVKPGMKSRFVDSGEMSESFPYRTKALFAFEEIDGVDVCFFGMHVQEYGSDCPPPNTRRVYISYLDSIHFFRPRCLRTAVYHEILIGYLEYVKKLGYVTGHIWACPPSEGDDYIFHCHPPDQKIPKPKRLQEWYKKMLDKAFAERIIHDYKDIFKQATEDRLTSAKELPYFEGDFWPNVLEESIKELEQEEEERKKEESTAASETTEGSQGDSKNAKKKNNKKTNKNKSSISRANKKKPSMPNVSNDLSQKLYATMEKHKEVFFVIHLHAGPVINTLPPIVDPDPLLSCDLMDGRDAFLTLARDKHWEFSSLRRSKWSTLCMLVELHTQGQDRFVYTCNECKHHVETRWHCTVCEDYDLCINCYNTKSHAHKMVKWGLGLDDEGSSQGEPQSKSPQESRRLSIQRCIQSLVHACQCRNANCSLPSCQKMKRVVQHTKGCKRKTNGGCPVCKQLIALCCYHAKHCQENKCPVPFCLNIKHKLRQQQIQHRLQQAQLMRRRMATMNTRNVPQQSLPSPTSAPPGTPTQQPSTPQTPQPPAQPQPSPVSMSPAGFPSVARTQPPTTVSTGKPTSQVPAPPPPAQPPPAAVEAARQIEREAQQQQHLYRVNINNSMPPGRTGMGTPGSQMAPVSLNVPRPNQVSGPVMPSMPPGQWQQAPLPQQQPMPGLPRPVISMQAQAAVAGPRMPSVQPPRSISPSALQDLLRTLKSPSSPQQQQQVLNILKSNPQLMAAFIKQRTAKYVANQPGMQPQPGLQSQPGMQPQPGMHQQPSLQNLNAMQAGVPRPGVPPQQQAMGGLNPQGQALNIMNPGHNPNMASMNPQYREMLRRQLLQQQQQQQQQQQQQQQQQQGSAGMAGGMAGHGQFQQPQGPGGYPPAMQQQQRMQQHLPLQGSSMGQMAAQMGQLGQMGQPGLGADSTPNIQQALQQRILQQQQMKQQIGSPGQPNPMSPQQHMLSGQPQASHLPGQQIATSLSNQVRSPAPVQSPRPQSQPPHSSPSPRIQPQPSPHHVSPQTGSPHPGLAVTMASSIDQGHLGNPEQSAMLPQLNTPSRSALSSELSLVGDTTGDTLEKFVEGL
- measurement notes: Displacement of biotinylated ligand from recombinant His-tagged CBP (unknown origin) incubated for 10 mins by TR-FRET assay
pIC50: −log10 of the molar value.
The threshold is inclusive: pIC50 of exactly 7 counts as Criterion met; values below receive Criterion not met.

Is pIC50 for C[C@@H]1CC(=O)Nc2cccc(C(=O)N[C@@H](C)c3ccccc3)c2N1 at or above 7?
Criterion not met

// inclusive: pIC50 at least 7? input: C[C@@H]1CC(=O)Nc2ccc(OCc3cccnc3)cc2O1
Criterion not met

Could you verify whether the entry C[C@@H]1CC(=O)Nc2cccc(-c3ccc4c(cnn4C)c3)c2N1 shows pIC50 of no less than 7?
Criterion not met

Answer whether pIC50 of CC1CC(=O)Nc2ccccc2O1 (racemic) is greater than or equal to 7.
Criterion not met

Would you say C[C@@H]1CC(=O)Nc2cccc(C(=O)Nc3cccc(-c4cnco4)c3)c2N1 shows pIC50 at minimum 7?
Criterion met

Does the molecule CC1CC(=O)Nc2ccccc2C1 (racemic) have recorded pIC50 that is 7 or more?
Criterion not met

Could you verify whether the entry CC1CC(=O)Nc2ccccc2S1 (racemic) shows pIC50 of no less than 7?
Criterion not met

Textbook exercise: given the entry C[C@@H]1CC(=O)Nc2cccc(C(=O)NCc3cnco3)c2N1 , state whether its pIC50 is greater than or equal to 7.
Criterion not met

Please tell me: is the molecule CC1CC(=O)Nc2ccccc2N1 (racemic) at or over 7 in terms of pIC50?
Criterion not met

Assess whether reported pIC50 for C[C@@H]1CC(=O)Nc2cccc(-c3ccc4c(c3)c(-c3cnn(C)c3)nn4C)c2N1 sits at 7 or higher.
Criterion met
